- Tested on: production of CD69 by B lymphocytes in human whole blood
- ASSAY_NOTES: CD69 Whole Blood Assay (CD69 Hu Blood FACS)
- Type: cell-based
- CONDITION_CONTEXT: human whole blood activated with goat F(ab')2 anti-human IgM, 20 hours; CD69 on CD20 positive cells by FACS; Table 1
Some molecules, each annotated with its measured CD69 Hu Blood FACS (IC70).
Express it in nM; write the number only.

Solved cases (2 shown):
The recorded CD69 Hu Blood FACS (IC70) for entry C[C@H]1CN(C2COC2)CCN1c1ccc(Nc2cc(-c3cncc(-n4ncc5cc(C(C)(C)C)cc(F)c5c4=O)c3CO)cn(C)c2=O)nc1 equals 12

The recorded CD69 Hu Blood FACS (IC70) for entry CC[C@H]1CN(C2COC2)CCN1c1ccc(Nc2cc(-c3ccnc(-n4ncc5cc(C(C)(C)C)cc(F)c5c4=O)c3CO)cn(C)c2=O)nc1 equals 32.9

---
The recorded CD69 Hu Blood FACS (IC70) for entry Cn1cc(-c2cc(F)cc(-n3ncc4cc(C(C)(C)C)cc(F)c4c3=O)c2CO)cc(Nc2ccc(N3CCN(C4COC4)CC3)cn2)c1=O equals 12
